Attribution: paper PMC10178974

- Test system: Respiratory syncytial virus virions (surface protein not named) (Respiratory syncytial virus A2)
- RUN DESCRIPTION: BLI
- REPORTED CONDITIONS: BLI: PBS pH 7.4 (8 mM Na2HPO4, 1.5 mM KH2PO4, 140 mM NaCl, 10 mM KCl), 0.01% Tween-20, 0.1 mg/mL BSA; biotin-aptamer on streptavidin sensor; virus as analyte …
MEASURE NAME: pKd
Answers are plain numbers, as −log10 of the molar value.

AGTGCGGTGAGCCGTCGGACATACAAATAC [Biotin-H8]
13.51

Now examine the next entry.
What pKd value was documented for this sequence, GTGCCAGCTATGCCATTGGCGGGTCGTCCAATTCGAGAGGTCCCCTAGCGTCTATCTCTGCTGC [Biotin-ADV-20] ?
12.42
